Catalogue of MIC / MEC readings, one per entry.
# Test system: Candida auris
# assay-notes: MIC broth microdilution (CLSI)
# Format: cell-based
# protocol-conditions: Candida auris CDC-0384
property-name: MIC / MEC (µg/mL)

compound="CC(=O)N1CCN(c2ccc(OCC3COC(Cn4ccnc4)(c4ccc(Cl)cc4Cl)O3)cc2)CC1 (stereo not shown) [KET, ketoconazole]" property_name="MIC / MEC" meas_value=4
compound="C[C@@H]1[C@H](O)[C@@H](C)/C=C/C=C/C=C/C=C/C=C/C=C/C=C/[C@H](O[C@@H]2O[C@H](C)[C@@H](O)[C@H](N)[C@@H]2O)C[C@@H]2O[C@](O)(C[C@@H](O)C[C@@H](O)[C@H](O)CC[C@@H](O)C[C@@H](O)CC(=O)O[C@H]1C)C[C@H](O)[C@H]2C(=O)O [AMB, amphotericin B]" property_name="MIC / MEC" meas_value=2
compound="CC[C@H](C)C[C@H](C)CCCCCCCCC(=O)N[C@H]1C[C@@H](O)[C@@H](NCCN)NC(=O)[C@@H]2[C@@H](O)CCN2C(=O)[C@H]([C@H](O)CCN)NC(=O)[C@H]([C@H](O)[C@@H](O)c2ccc(O)cc2)NC(=O)[C@@H]2C[C@@H](O)CN2C(=O)[C@H]([C@@H](C)O)NC1=O [CAS, caspofungin]" property_name="MIC / MEC" meas_value=4
compound="CCC(C)n1ncn(-c2ccc(N3CCN(c4ccc(OCC5COC(Cn6cncn6)(c6ccc(Cl)cc6Cl)O5)cc4)CC3)cc2)c1=O (stereo not shown) [ITR, itraconazole]" property_name="MIC / MEC" meas_value=2

###

# Tested on: Fusarium solani
# assay-notes: checkerboard drug interaction (FICI, MICc);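 note: simplified diagonal checkerboard screen pairing antifungals with FPPS inhibitors, FICI derived under the Loewe additivity model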
# Assay type: cell-based
# protocol-conditions: in combination with ZOL
property-name: antifungal MICc

compound="Nc1nc(=O)[nH]cc1F [5FC, 5-flucytosine]" property_name="antifungal MICc" meas_value=256
compound="CCC(C)n1ncn(-c2ccc(N3CCN(c4ccc(OCC5COC(Cn6cncn6)(c6ccc(Cl)cc6Cl)O5)cc4)CC3)cc2)c1=O (stereo not shown) [ITR, itraconazole]" property_name="antifungal MICc" meas_value=0.5
compound="C[C@@H](c1ncncc1F)[C@](O)(Cn1cncn1)c1ccc(F)cc1F [VOR]" property_name="antifungal MICc" meas_value=1
compound="CC(=O)N1CCN(c2ccc(OCC3COC(Cn4ccnc4)(c4ccc(Cl)cc4Cl)O3)cc2)CC1 (stereo not shown) [KET, ketoconazole]" property_name="antifungal MICc" meas_value=4
compound="CC[C@H](C)C[C@H](C)CCCCCCCCC(=O)N[C@H]1C[C@@H](O)[C@@H](NCCN)NC(=O)[C@@H]2[C@@H](O)CCN2C(=O)[C@H]([C@H](O)CCN)NC(=O)[C@H]([C@H](O)[C@@H](O)c2ccc(O)cc2)NC(=O)[C@@H]2C[C@@H](O)CN2C(=O)[C@H]([C@@H](C)O)NC1=O [CAS, caspofungin]" property_name="antifungal MICc" meas_value=64
compound="C[C@@H]1[C@H](O)[C@@H](C)/C=C/C=C/C=C/C=C/C=C/C=C/C=C/[C@H](O[C@@H]2O[C@H](C)[C@@H](O)[C@H](N)[C@@H]2O)C[C@@H]2O[C@](O)(C[C@@H](O)C[C@@H](O)[C@H](O)CC[C@@H](O)C[C@@H](O)CC(=O)O[C@H]1C)C[C@H](O)[C@H]2C(=O)O [AMB, amphotericin B]" property_name="antifungal MICc" meas_value=0.25
compound="OC(Cn1cncn1)(Cn1cncn1)c1ccc(F)cc1F [FLC, fluconazole]" property_name="antifungal MICc" meas_value=32

Sourced from paper PMC12892976
